measured.target: BCRP (ABCG2) (Homo sapiens)
Sequence (Q9UNQ0 whole entry): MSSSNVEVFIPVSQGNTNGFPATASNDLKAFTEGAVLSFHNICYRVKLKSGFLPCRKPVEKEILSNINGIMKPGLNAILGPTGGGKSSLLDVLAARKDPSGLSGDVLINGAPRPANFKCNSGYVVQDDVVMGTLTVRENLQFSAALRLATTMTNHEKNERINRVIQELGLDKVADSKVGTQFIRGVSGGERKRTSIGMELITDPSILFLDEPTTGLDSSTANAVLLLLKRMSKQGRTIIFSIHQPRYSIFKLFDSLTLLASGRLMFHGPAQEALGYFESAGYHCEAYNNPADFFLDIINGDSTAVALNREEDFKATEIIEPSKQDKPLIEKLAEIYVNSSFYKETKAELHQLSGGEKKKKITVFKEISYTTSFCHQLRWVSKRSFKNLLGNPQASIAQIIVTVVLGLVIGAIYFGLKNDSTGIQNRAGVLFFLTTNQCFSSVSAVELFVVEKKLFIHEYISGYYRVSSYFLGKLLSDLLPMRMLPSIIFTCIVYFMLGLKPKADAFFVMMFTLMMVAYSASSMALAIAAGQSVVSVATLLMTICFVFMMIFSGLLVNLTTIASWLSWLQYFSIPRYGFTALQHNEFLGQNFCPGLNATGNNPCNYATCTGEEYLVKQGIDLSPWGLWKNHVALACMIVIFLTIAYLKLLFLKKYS
protocol.text: Inhibition of BCRP (unknown origin) expressed in MDCK2 cells assessed as pheophorbide A accumulation at 10 uM preincubated for 20 mins measured after 120 mins by flow cytometry
Format: cell-based, MDCK-II
test.context: MDCK2 cells expressing BCRP, probe pheophorbide A
observed.property: inhibition at 2 h, 10 µM

Look at each compound and report its inhibition at 2 h, 10 µM.
1. N#Cc1c2n(c3c(N4CCN(Cc5ccccc5)CC4)ncnc13)CCCC2
2. N#Cc1c2n(c3c(NCCCc4ccccc4)ncnc13)CCCC2
3. N#Cc1c2n(c3c(N4CCNCC4)ncnc13)CCCC2
4. CCCn1cc(C#N)c2ncnc(N3CCN(CCc4ccccc4)CC3)c21
5. N#Cc1cn(C2CC2)c2c(N3CCN(CCc4ccccc4)CC3)ncnc12

[A]
1: > 25%; 2: > 25%; 3: > 25%; 4: < 25%; 5: < 25%

[Q] System BCRP (ABCG2) (Homo sapiens). Read-out inhibition at 2 h, 10 µM. Item N#Cc1c2n(c3c(N4CCN(c5ccccc5)CC4)ncnc13)CCCC2 . Report value.
[A] > 25%

----------
measured.target: Broad substrate specificity ATP-binding cassette transporter ABCG2 (Homo sapiens, UniProt Q9UNQ0)
Sequence (Q9UNQ0 whole entry): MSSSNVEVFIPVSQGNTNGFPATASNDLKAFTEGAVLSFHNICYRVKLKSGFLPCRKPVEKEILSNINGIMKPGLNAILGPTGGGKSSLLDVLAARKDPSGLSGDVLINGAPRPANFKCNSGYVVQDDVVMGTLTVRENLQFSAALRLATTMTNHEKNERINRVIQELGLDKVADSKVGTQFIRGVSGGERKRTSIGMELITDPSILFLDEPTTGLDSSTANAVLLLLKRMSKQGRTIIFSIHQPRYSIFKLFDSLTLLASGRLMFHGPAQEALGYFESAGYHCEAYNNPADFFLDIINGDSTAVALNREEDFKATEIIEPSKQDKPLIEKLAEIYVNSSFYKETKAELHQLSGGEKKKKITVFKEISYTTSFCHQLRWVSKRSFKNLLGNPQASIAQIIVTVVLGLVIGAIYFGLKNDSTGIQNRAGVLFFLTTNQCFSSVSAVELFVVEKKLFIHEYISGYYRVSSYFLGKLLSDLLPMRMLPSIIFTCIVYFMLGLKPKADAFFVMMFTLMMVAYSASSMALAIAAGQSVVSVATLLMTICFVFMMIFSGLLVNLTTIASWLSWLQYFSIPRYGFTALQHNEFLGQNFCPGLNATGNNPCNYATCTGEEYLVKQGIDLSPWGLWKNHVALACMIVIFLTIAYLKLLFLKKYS
protocol.text: Inhibition of BCRP (unknown origin) expressed in MDCK2 cells assessed as pheophorbide A accumulation preincubated for 20 mins measured after 120 mins by flow cytometry
What pIC50 was measured for each of the following?
Answers are plain numbers, as −log10 of the molar value.

// below: answered compounds
1) N#Cc1c2n(c3c(N4CCN(CCc5ccccc5)CC4)ncnc13)CCCC2
5.09
2) N#Cc1c2n(c3c(NCc4ccccc4)ncnc13)CCCC2
4.80
3) N#Cc1c2n(c3c(Nc4ccccc4)ncnc13)CCCC2
5.11
4) N#Cc1c2n(c3c(NCCCc4ccccc4)ncnc13)CCCC2
5.22

For the next question, use this compound.
[Q] Output pIC50 of N#Cc1c2n(c3c(N4CCN(C(c5ccccc5)c5ccccc5)CC4)ncnc13)CCCC2
[A] 4.84

Data origin, for the record: ChEMBL document CHEMBL3804803
